Target or test system: human CCR8 (human, UniProt P51685 1-355)
Assay protocol: cell-based or functional assay
# key: entry, value: hCCL1 (100 nM) residual response, Protocol #3, mAb 0.5 µg/mL
Record the value in %, omitting the unit from your answer.

Record excerpt, results attached:
Which measured hCCL1 (100 nM) residual response, Protocol #3, mAb 0.5 µg/mL value corresponds to 3-81 (antibody, human IgG1, kappa, V domains shown, humanized, human IgG1 kappa) VH: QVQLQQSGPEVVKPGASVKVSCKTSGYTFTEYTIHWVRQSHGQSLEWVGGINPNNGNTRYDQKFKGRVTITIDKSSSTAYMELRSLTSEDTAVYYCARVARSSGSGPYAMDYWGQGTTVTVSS VL: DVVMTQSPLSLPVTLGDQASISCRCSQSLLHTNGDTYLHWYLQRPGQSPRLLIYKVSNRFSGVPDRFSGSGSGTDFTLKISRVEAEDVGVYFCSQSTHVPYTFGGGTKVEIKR ?
52

Also need 3-49 (antibody, V domains shown) VH: EVQLQQSGPELVKPGASVKISCKTSGYTFTEYTMHWVKQSHGKSLEWIGGINPNNGDTNYNQKFMGKATLTVDKSSSTAYMELRSLTSEDSAVYYCVRRLLRRGAMDYWGQGTSVTVSS VL: DIVLTQSPASLAVSLGQRATISCRASENVEYYGTSLMQWFQQKPGQPPKLLIYAASNVDSGVPARFSGSGSGTDFSLNIHPVEEDDIAMYFCQQSRKVPWTFGGGTKLDIK , thanks.
97

Continuing:
Which measured hCCL1 (100 nM) residual response, Protocol #3, mAb 0.5 µg/mL value corresponds to 3-11 (antibody, V domains shown) VH: EVQLVESGGGLVQPKGSLKLSCAASGFTFNTYAMNWVRQAPGKGLEWVARIRSKSNNYATYYADSVKDRFTISRDDSQSMLYLQMNNLKTEDTAMYYCVRGREAYYRYDGGYYAMDYWGQGTSVTVSS VL: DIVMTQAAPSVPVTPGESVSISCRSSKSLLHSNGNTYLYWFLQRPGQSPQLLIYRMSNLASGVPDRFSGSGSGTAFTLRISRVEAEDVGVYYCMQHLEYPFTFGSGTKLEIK ?
68
